Values compiled from the NIST ThermoML archive (doi:10.1016/j.fluid.2011.09.010).

assay: activity coefficient (dimensionless); of the first substance listed, at infinite dilution; xn = mol fraction of the nth substance listed; conditions: 353.15 K; 101.3 kPa; Liquid; Differential ebulliometry; x1 = 0
measuredQuantity: activity coefficient

{"compound": "NC1CCCCC1 [cyclohexylamine] + CC1CCCCC1", "assayValue": 1.87}
{"compound": "CCC1CCCCC1 [ethylcyclohexane] + NC1CCCCC1", "assayValue": 1.57}
{"compound": "CC1CCCCC1 [methylcyclohexane] + NC1CCCCC1", "assayValue": 1.26}
{"compound": "NC1CCCCC1 [cyclohexylamine] + CCC1CCCCC1", "assayValue": 1.52}

* * *

experiment: activity coefficient (dimensionless); of the first substance listed, at infinite dilution; xn = mol fraction of the nth substance listed; settings: 393.15 K; 101.3 kPa; Liquid; Differential ebulliometry; x1 = 0
measuredQuantity: activity coefficient

{"molecule": "NC1CCCCC1 [cyclohexylamine] + CC1CCCCC1", "assayValue": 1.48}
{"molecule": "NC1CCCCC1 [cyclohexylamine] + CCC1CCCCC1", "assayValue": 1.36}
{"molecule": "CCC1CCCCC1 [ethylcyclohexane] + NC1CCCCC1", "assayValue": 1.42}
{"molecule": "C1CCCCC1 [cyclohexane] + NC1CCCCC1", "assayValue": 1.18}

* * *

test: activity coefficient (dimensionless); of the first substance listed, at infinite dilution; xn = mol fraction of the nth substance listed; details: 373.15 K; 101.3 kPa; Liquid; Differential ebulliometry; x1 = 0
measuredQuantity: activity coefficient

{"compound": "C1CCCCC1 [cyclohexane] + NC1CCCCC1", "activity coefficient": 1.24}
{"compound": "NC1CCCCC1 [cyclohexylamine] + CC1CCCCC1", "activity coefficient": 1.64}
{"compound": "CCC1CCCCC1 [ethylcyclohexane] + NC1CCCCC1", "activity coefficient": 1.45}
{"compound": "CC1CCCCC1 [methylcyclohexane] + NC1CCCCC1", "activity coefficient": 1.25}
{"compound": "NC1CCCCC1 [cyclohexylamine] + CCC1CCCCC1", "activity coefficient": 1.45}
